molecular target: Phosphatidylinositol 4,5-bisphosphate 3-kinase catalytic subunit alpha isoform (Homo sapiens)
Sequence (P42336 whole entry, canonical isoform): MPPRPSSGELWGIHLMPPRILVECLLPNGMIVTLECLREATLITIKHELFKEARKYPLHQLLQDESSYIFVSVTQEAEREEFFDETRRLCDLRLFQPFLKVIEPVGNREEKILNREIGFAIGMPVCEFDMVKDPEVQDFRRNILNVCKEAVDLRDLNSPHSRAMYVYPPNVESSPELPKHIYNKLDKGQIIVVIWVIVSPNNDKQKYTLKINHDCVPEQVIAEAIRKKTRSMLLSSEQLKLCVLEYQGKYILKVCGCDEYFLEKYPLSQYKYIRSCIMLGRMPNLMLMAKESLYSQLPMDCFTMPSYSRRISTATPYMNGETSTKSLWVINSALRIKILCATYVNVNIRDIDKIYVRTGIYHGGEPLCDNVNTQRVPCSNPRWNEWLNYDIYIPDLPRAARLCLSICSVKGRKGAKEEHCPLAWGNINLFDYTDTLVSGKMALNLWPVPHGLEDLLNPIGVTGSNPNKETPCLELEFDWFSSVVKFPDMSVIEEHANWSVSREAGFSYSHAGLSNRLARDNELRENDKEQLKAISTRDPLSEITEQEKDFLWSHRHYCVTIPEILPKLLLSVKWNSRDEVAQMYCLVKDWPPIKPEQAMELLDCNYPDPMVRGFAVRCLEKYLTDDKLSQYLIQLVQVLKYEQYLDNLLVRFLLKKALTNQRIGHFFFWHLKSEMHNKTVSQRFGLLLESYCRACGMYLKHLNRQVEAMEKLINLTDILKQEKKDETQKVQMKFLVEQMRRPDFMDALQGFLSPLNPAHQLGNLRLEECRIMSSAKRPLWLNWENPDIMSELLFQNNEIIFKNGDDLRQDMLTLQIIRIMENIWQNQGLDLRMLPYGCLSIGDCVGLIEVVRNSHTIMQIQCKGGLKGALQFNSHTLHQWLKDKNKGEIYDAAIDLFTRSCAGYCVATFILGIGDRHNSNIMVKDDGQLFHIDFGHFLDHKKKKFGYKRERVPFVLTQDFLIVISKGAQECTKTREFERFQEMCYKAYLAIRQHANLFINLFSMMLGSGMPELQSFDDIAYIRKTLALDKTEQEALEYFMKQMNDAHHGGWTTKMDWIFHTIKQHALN
Measured Parameter: IC50 (nM)

Example results:
[[record]]
smiles_text = "CCNC(=O)c1ccc(NC(=O)Nc2ccc(-c3nc(N4CCOCC4)c4nnn(CC)c4n3)cc2)cc1"
recorded_result = 3

[[record]]
smiles_text = "CC(C)n1nnc2c(N3CCOCC3)nc(-c3ccc(NC(=O)Nc4ccc(CO)cc4)cc3)nc21"
recorded_result = 3.5


1: CCn1nnc2c(N3CCOCC3)nc(-c3ccc(NC(=O)Nc4ccc(C(=O)NCCN5CCN(C)CC5)cc4)cc3)nc21
2: CCn1nnc2c(N3CCOCC3)nc(-c3ccc(NC(=O)Nc4ccncc4)cc3)nc21
QUERY: Please tell me which of the two, 1 or 2 , has the higher reported IC50 value. Mark your selection by writing its label.
RESULT: 2
(2: 5 nM, 1: 3.2 nM)

###

experiment: in vitro; conditions: rat, liver microsomes
Measured Parameter: half-life (min)

[[record]]
smiles_text = "CC(C)n1nnc2c(N3CCOCC3)nc(-c3ccc(NC(=O)Nc4ccc(C(N)=O)cc4)cc3)nc21"
measured_parameter = "half-life"
recorded_result = 9


I: CC(C)n1nnc2c(N3CCOCC3)nc(-c3ccc(NC(=O)Nc4cccnc4)cc3)nc21
II: CCn1nnc2c(N3CCOCC3)nc(-c3ccc(NC(=O)Nc4ccnc(C)c4)cc3)nc21
QUERY: # argmax over half-life for candidates I and II // output: label of the selected item
RESULT: I

###

test: in vitro; details: rat, liver microsomes
Measured Parameter: half-life (min)

[[record]]
smiles_text = "CC(C)n1nnc2c(N3CCOCC3)nc(-c3ccc(NC(=O)Nc4ccc(N5CCOCC5)cc4)cc3)nc21"
measured_parameter = "half-life"
recorded_result = 25

[[record]]
smiles_text = "CCn1nnc2c(N3CCOCC3)nc(-c3ccc(NC(=O)Nc4ccncc4)cc3)nc21"
measured_parameter = "half-life"
recorded_result = 27

[[record]]
smiles_text = "CCn1nnc2c(N3CCOCC3)nc(-c3ccc(NC(=O)Nc4ccc(C(=O)NCCc5ccccn5)cc4)cc3)nc21"
measured_parameter = "half-life"
recorded_result = 23

